Ref: ChEMBL document CHEMBL3875216

- Test system: Pseudomonas aeruginosa
- Assay Info: Inhibition of LasR-dependent quorum sensing activity in Pseudomonas aeruginosa MH602 harboring GFP-fused […] LasB promoter assessed as inhibition of 3-oxo-dodecanoyl HSL-induced GFP expression at 1 mM measured after 24 hrs by fluorescence assay relative to control
Value Kind: inhibition

QUERY: Would you kindly share the measured inhibition for CC(=O)OC[C@H]1O[C@@H](OC(C)=O)[C@H](NC(=O)Cc2ccc(Br)cc2)[C@@H](OC(C)=O)[C@@H]1OC(C)=O ?
RESULT: 10%

QUERY: Try this compound next: CC(=O)OC[C@H]1O[C@@H](OC(C)=O)[C@H](NC(=O)Cc2c[nH]c3ccccc23)[C@@H](OC(C)=O)[C@@H]1OC(C)=O
RESULT: 12.5%

QUERY: Try this compound next: CCCCCC(=O)N[C@H]1[C@H](OC(C)=O)O[C@H](COC(C)=O)[C@@H](OC(C)=O)[C@@H]1OC(C)=O
RESULT: 2.6%

QUERY: Try this compound next: O=C(Cc1ccc(C(F)(F)F)cc1)N[C@@H]1[C@@H](O)[C@H](O)[C@@H](CO)O[C@H]1O
RESULT: 10.3%
